pIC50: −log10 of the molar value.
As a worked illustration, we turn to pIC50 data collected for CqsS (Vibrio cholerae serotype O1, UniProt Q9KM66).

Endpoint output: pIC50 of CCCCCCCCCC(=O)C(O)c1ccc(CC)cc1 (centres unmarked) [Compound C10, 1-(4-Ethylphenyl)-1-hydroxyundecan-2-one] . Value?
< 3.30

And for CCCCCCCCCC(=O)C(O)c1ccc(CCC)cc1 (centres unmarked) ?
< 3.30

* * *

Target: CqsS (Vibrio cholerae serotype O1, UniProt Q9KM66)
Sequence (Q9KM66 whole entry, looked up): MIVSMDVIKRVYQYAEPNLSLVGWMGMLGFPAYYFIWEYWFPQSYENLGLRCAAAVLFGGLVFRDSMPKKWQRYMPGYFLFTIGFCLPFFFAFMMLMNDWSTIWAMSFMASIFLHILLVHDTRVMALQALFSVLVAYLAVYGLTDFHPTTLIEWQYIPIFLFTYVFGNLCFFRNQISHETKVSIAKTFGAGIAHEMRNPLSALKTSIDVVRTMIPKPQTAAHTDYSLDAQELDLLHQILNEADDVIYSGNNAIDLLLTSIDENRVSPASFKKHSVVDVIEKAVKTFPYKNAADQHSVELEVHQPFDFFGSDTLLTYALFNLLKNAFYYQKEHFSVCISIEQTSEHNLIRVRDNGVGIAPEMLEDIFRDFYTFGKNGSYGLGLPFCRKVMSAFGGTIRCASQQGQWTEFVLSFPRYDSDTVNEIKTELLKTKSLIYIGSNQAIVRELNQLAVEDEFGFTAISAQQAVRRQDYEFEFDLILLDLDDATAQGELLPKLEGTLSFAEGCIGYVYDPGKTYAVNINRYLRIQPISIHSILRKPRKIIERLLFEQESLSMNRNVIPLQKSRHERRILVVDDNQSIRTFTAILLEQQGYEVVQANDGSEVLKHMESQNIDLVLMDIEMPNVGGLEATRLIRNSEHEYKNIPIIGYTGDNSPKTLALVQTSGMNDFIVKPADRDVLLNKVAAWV
Experiment: Vibrio cholerae antagonism bioassay
Settings: V. cholerae MM920 reporter with 1.0 μM CAI-1, up to 512 μM

compound	target desc	antagonist activity (in words)
CCCCCCCCCC(=O)C(O)c1ccc(CCC)cc1 (stereo not shown)	CqsS (Vibrio cholerae serotype O1, UniProt Q9KM66)	inactive
CCCCCCCCCC(=O)C(O)c1ccc(CC)cc1 (stereo not shown) [Compound C10, 1-(4-Ethylphenyl)-1-hydroxyundecan-2-one]	CqsS (Vibrio cholerae serotype O1, UniProt Q9KM66)	inactive

* * *

Target: CqsS (Vibrio cholerae serotype O1)
Experiment: Vibrio cholerae agonism bioassay
Conditions: V. cholerae MM920 reporter, up to 50 μM

compound	agonist activity (in words)
CCCCCCCCCC(=O)C(Cl)CC (stereo not shown)	inactive
CCCCCCCCCC(=O)C(O)C(C)(C)C (stereo not shown) [Compound C4, 3-Hydroxy-2,2-dimethyltridecan-4-one]	inactive
CCCCCCCCCCCCC(=O)[C@@H](O)CC [Compound A9, (S)-3-Hydroxyhexadecan-4-one]	essentially inactive
CCCCCCC(=O)[C@@H](O)CC [Compound A2, (S)-3-Hydroxydecan-4-one]	essentially inactive
